method-notes: qHTS assay for MDR1-selective chemotherapeutics: Primary screen using the parental adenocarcinoma cell KB-3-1; note: nearly all actives have a fitted effect of over 60% in size; note: potency is the fitted concentration of half-maximal effect
run-conditions: KB-3-1 viability, CellTiter-Glo ATP luminescence, 72 h; series mostly up to 46.1 µM
About 5,500 (1.4%) of roughly 400,000 compounds were called active. About 9% were inconclusive and are not listed. For the sample, actives were picked, then their nearest neighbours and some compounds at random.
observed-property: Potency

O=[N+]([O-])c1ccc(NS(=O)(=O)c2ccccc2)c(Cl)c1 : 16.4 µM (active)
O=C(NCCNc1ccc([N+](=O)[O-])cc1Cl)c1ccccc1F : inactive
O=C(NNS(=O)(=O)c1ccc(F)cc1)c1ccc([N+](=O)[O-])cc1Cl : inactive
